# protocol: Saturated solubility of eszopiclone in various solvents (shake flask, HPLC)
# Type: physicochemical
# test.parameters: aqueous buffer, thermodynamic from solid, Phosphate buffer (pH 7.5), room temperature
observation.type: solubility at 24 h (µg/mL)
// return numeric value only (unit: µg/mL, not printed)

Respond only with solubility at 24 h recorded for CN1CCN(C(=O)O[C@H]2c3nccnc3C(=O)N2c2ccc(Cl)cn2)CC1
330

---

# protocol: Saturated solubility of eszopiclone in various solvents (shake flask, HPLC)
# Type: physicochemical
# test.parameters: aqueous buffer, thermodynamic from solid, Acetate buffer (pH 4.5), room temperature
observation.type: solubility at 24 h (mg/mL)
Only the number, expressed in mg/mL, is required.

Output solubility at 24 h of CN1CCN(C(=O)O[C@H]2c3nccnc3C(=O)N2c2ccc(Cl)cn2)CC1
11.6

---

# protocol: Saturated solubility of eszopiclone in various solvents (shake flask, HPLC)
# Format: physicochemical
# test.parameters: aqueous with cosolvent or surfactant or cyclodextrin, thermodynamic from solid, 0.5% Sodium lauryl sulphate in water, room temperature
observation.type: solubility at 24 h (µg/mL)
Quick reminder: number only, in µg/mL, skip the unit.

Supply reported solubility at 24 h belonging to this compound: CN1CCN(C(=O)O[C@H]2c3nccnc3C(=O)N2c2ccc(Cl)cn2)CC1
1830

---

# protocol: Saturated solubility of eszopiclone in various solvents (shake flask, HPLC)
# Format: physicochemical
# test.parameters: aqueous buffer, thermodynamic from solid, Phosphate buffer (pH 6.8), room temperature
observation.type: solubility at 24 h
Note: a bare number is incomplete; add the unit.

Give recorded solubility at 24 h. CN1CCN(C(=O)O[C@H]2c3nccnc3C(=O)N2c2ccc(Cl)cn2)CC1
680 µg/mL

---

# protocol: Saturated solubility of eszopiclone in various solvents (shake flask, HPLC)
# Format: physicochemical
# test.parameters: simulated gastric fluid, thermodynamic from solid, 0.01N HCl, room temperature
observation.type: solubility at 24 h (µg/mL)
Give just the numeric value; µg/mL need not be written.

Write down solubility at 24 h measured for item CN1CCN(C(=O)O[C@H]2c3nccnc3C(=O)N2c2ccc(Cl)cn2)CC1 [Eszopiclone]
4180

---

# protocol: Saturated solubility of eszopiclone in various solvents (shake flask, HPLC)
# Assay type: physicochemical
# test.parameters: simulated gastric fluid, thermodynamic from solid, 0.1N Hydrochloric acid (pH 1.2), room temperature
observation.type: solubility at 24 h (mg/mL)
Respond with the bare value in mg/mL.

Specify measured solubility at 24 h for CN1CCN(C(=O)O[C@H]2c3nccnc3C(=O)N2c2ccc(Cl)cn2)CC1 .
39.1

---

# protocol: Saturated solubility of eszopiclone in various solvents (shake flask, HPLC)
# Assay type: physicochemical
# test.parameters: thermodynamic from solid, Simulated gastric fluid (pH 1.2), room temperature
observation.type: solubility at 24 h
Form entry: enter the amount, then its unit.

Give solubility at 24 h for the following compound: CN1CCN(C(=O)O[C@H]2c3nccnc3C(=O)N2c2ccc(Cl)cn2)CC1 [Eszopiclone]
8180 µg/mL
